Origin of values: ChEMBL document CHEMBL4190365

- Tested on: BJ
- ASSAY_INFO: Cytotoxicity in human BJ cells assessed as reduction in cell viability incubated for 72 hrs by calcein AM cytotoxicity assay
- Assay type: functional, cell-based
- ASSAY_CONTEXT: Homo sapiens, BJ, 72 h
Recorded IC50 values for a group of molecules are listed next.
Just the number please, in µM, no unit attached.

// IC50 lookup, key: C=C(C)[C@@H]1CC[C@]2(C(=O)OCCOC)CC[C@]3(C)[C@H](CC[C@@H]4[C@@]5(C)CC[C@H](O)C(C)(C)[C@@H]5CC[C@]43C)[C@@H]12 43.7

Continue with CC(=O)OC[C@H]1O[C@@H](OC(=O)[C@@]23CC[C@]4(C)[C@H](CC[C@@H]5[C@@]6(C)CC[C@H](OC(C)=O)C(C)(C)[C@@H]6CC[C@]54C)C2=C(C(C)C)C(=O)C3)[C@H](OC(C)=O)[C@@H](OC(C)=O)[C@H]1OC(C)=O 31.8

Continue with CC(C)[C@@H]1CC[C@]2(C(=O)OCCBr)CC[C@]3(C)[C@H](CC[C@@H]4[C@@]5(C)CC[C@H](O)C(C)(C)[C@@H]5CC[C@]43C)[C@@H]12 36.7
